MEASURED ON: biotinylated (prokaryotic) IL-6 (Homo sapiens, UniProt P05231)
Sequence (P05231 30-212): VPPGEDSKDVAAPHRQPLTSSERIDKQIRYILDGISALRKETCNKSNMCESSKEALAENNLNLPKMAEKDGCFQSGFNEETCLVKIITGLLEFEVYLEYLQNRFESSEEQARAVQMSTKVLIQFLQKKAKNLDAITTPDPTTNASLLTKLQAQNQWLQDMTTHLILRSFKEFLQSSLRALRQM
EXPERIMENTAL DETAILS: Surface plasmon resonance (Biacore), biotinylated IL-6 captured on streptavidin sensor chip
Format: binding
MEASUREMENT CONTEXT: purified Fab
REPORTED METRIC: KA (M⁻¹)
The response must be a number in M⁻¹ with no trailing unit.

Input line: Would you mind telling me what KA value was observed for 24E9: antagonistic IL-6-specific Fab clone from immunized llama (antibody, listed as Lama glama, V domains shown) VH: EVQLVESGGGLVQPGGSLRLSCAASGFTFSTYAMSWVRQAPGKGPEWVSRISSGGGSTNYADSVKGRFTISRDNAKKTLYLQMKSLKPEDTAVYYCANRAGWGMGDYWGQGTQVTVSS VL: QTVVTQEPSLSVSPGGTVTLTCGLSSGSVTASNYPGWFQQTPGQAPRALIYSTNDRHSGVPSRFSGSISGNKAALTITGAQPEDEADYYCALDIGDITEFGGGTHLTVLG ?
Output line: 8.38e+08
